Assay: Single-dose pharmacokinetics and bioavailability after oral gavage administration of EK-ECP
Assay type: in vivo, male Sprague–Dawley rats
Settings: male, Sprague-Dawley, rat, plasma; PO 100 mg/kg EK-ECP (Group 3), mean (CV)
MEASUREMENT_KIND: Cmax (ng/mL)
Answer format: numeric, ng/mL implied, no suffix.

Challenge: Item under review: "Oc1cc(O)cc(Oc2c(O)cc(O)c3c2Oc2c(O)cc(Oc4c(O)cc(Oc5c(O)cc(O)c6c5Oc5c(O)cc(O)cc5O6)cc4O)cc2O3)c1" . Reported Cmax?
Response given: 6.67

###

Below: a set of entries, each annotated with reported half-life.
Assay: Single-dose pharmacokinetics after IV bolus administration of EK-ECP
Assay type: in vivo, male Sprague–Dawley rats
Conditions: male, Sprague-Dawley, rat, plasma, iv, 10 mg/kg, IV bolus 10 mg/kg EK-ECP, mean (CV); read-out: T1/2 (terminal half-life) (converted)

Challenge: What value of half-life has been recorded for this entry: "Oc1cc(O)cc(Oc2c(O)cc(O)c3c2Oc2c(O)cc(Oc4c(O)cc(Oc5c(O)cc(O)c6c5Oc5c(O)cc(O)cc5O6)cc4O)cc2O3)c1"
Response given: ~11.9 h

Alright, here's another compound for you.
Challenge: Recorded half-life of "Oc1cc(O)cc(Oc2c(O)cc(O)c3c2Oc2c(O)cc4oc5c(Oc6cc(O)cc(O)c6)c(O)cc(O)c5c4c2O3)c1" , please.
Response given: ~0.731 h
